- Read-out: Interleukin-8 (IL8), CXCL8 (gene 3576)
- ASSAY COMMENT: BSK_SAg_IL8: BioMAP Diversity Plus: SAg Assay for Interleukin-8 (IL8) Biomarker Activity (AID 2283094)
- PARTICULARS: primary human HUVEC with PBMC; actives raise or lower the signal
Active and inactive are the calls of the source. Rule for the calls: active = hit-call score of the fitted dose curve at least 0.9, where 1 is the maximum; inactive = score below 0.9.
Return exactly one item of active, inactive

Examples with answers:
>>> group_label("CCCCCCCCCCCCCCCCCC[N+](C)(C)C")
"active"
>>> group_label("Oc1cccc2ccccc12")
"inactive"
>>> group_label("CC(C)C1OCCN1CCOC(=O)NCCCCCCNC(=O)OCCN1CCOC1C(C)C (stereo not given)")
"inactive"

Prompt: // return assay outcome for CCCCCCCCCCC1CO1 (stereo not given)
Completion: inactive

Prompt: What would you report for CC(C)CC(=O)CC(C)CC(C)C (stereo not given) ?
Completion: inactive

Prompt: Next: CN(C)c1ccc(C(c2ccccc2)c2ccc(N(C)C)cc2)cc1
Completion: active

Prompt: Same thing, different compound: Cc1cc(-n2nc3ccc(Cl)cc3n2)c(O)c(C(C)(C)C)c1
Completion: inactive

Prompt: Moving on to the next compound: C1CN(CCOCCN2CCOCC2)CCO1
Completion: inactive

Prompt: Field entry: Cc1cccnc1
Completion: inactive
